System: galium (catchweed bedstraw, Galium aparine)
Experiment: Test A postemergence application, visual injury rating 0-100
Assay type: in vivo
Conditions: Postemergence, 16 g ai/ha, greenhouse 10 days; 0 no effect, 100 complete control
Documented Galium plant response rating (0 to 100 scale) across a set of molecules
Measured metric: Galium plant response rating (0 to 100 scale)

{"columns": ["Molecule", "Measured target", "Value"],
 "data": [
  ["CC(C)COC(=O)C1=CCC(NC(=O)C2(C)CN(c3cc(F)cc(F)c3)C(=O)O2)C1 (centres unmarked) [Compound 97]", "galium (catchweed bedstraw, Galium aparine)", 20],
  ["CC(C)OC(=O)C1=CCC(NC(=O)C2(C)CN(c3cc(F)cc(F)c3)C(=O)O2)C1 (centres unmarked) [Compound 100]", "galium (catchweed bedstraw, Galium aparine)", 70],
  ["CC(C)COC(=O)C1=CCC(NC(=O)C2(C)CN(c3cc(F)cc(Cl)c3)C(=O)O2)C1 (centres unmarked) [Compound 143]", "galium (catchweed bedstraw, Galium aparine)", 0],
  ["CC1(C(=O)NC2CC=C(C(=O)O)C2)CN(c2cc(F)cc(F)c2)C(=O)O1 (centres unmarked) [Compound 94]", "galium (catchweed bedstraw, Galium aparine)", 70],
  ["COC(=O)C1C=CC(NC(=O)C2(C(F)(F)F)CN(c3cc(F)c(F)c(F)c3)C(=O)O2)C1 (mixture of isomers) [Compound 162]", "galium (catchweed bedstraw, Galium aparine)", 30],
  ["COC(=O)C1C=CC(NC(=O)C2(C)CN(c3cc(F)cc(F)c3)C(=O)O2)C1 (mixture of isomers) [Compound 161]", "galium (catchweed bedstraw, Galium aparine)", 80],
  ["CC(C)COC(=O)C1=CCC(NC(=O)C2(C)CN(c3cc(Cl)cc(Cl)c3)C(=O)O2)C1 (centres unmarked) [Compound 156]", "galium (catchweed bedstraw, Galium aparine)", 80],
  ["CCOC(=O)C1C=CC(NC(=O)C2(C)CN(c3cc(C)cc(C)c3)C(=O)O2)C1 (centres unmarked) [Compound 116]", "galium (catchweed bedstraw, Galium aparine)", 60]
]}
